Can you tell me MC4R cAMP EC50 for the items I'm about to list?
system under test: human melanocortin 4 receptor (human, UniProt P32245 1-332)
Sequence (P32245 whole entry): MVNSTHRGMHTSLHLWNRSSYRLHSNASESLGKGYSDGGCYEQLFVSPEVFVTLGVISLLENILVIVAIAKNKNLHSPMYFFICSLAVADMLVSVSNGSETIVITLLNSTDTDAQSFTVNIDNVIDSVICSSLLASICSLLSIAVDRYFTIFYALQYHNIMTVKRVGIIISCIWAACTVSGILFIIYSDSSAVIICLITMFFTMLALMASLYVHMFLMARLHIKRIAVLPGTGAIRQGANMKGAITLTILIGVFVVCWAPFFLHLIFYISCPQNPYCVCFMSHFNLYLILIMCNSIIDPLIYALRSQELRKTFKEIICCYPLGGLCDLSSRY
assay info: cell-based or functional assay
Positions of bridges follow the written chain, without caps; N, C: chain ends. Non-standard residues stand in square brackets, D forms with d. Hyp = O=C(O)[C@@H]1C[C@@H](O)CN1; Api = NC1(C(=O)O)CCNCC1
Answers are plain numbers, in pM.

Input: So what does the record say about MC4R cAMP EC50 for cyclo(C[Hyp][dF]RWC[Hyp][dF]RW) (disulfide 1-6; SMILES N=C(N)NCCC[C@@H]1NC(=O)[C@@H](Cc2ccccc2)NC(=O)[C@@H]2C[C@@H](O)CN2C(=O)[C@@H]2CSSC[C@H](NC(=O)[C@H](Cc3c[nH]c4ccccc34)NC1=O)C(=O)N1C[C@H](O)C[C@H]1C(=O)N[C@H](Cc1ccccc1)C(=O)N[C@@H](CCCNC(=N)N)C(=O)N[C@@H](Cc1c[nH]c3ccccc13)C(=O)N2, also called c[c[Cys-Hyp-D-Phe-Arg-Trp-Cys]-Hyp-D-Phe-Arg-Trp]) [Chem. 27] ?
Output: 240

For the next question, use this binder.
Input: Fill in: MC4R cAMP EC50 of cyclo(C[Api]H[dF]RWC[Api]H[dF]RW) (disulfide 1-7; SMILES N=C(N)NCCC[C@@H]1NC(=O)[C@@H](Cc2ccccc2)NC(=O)[C@H](Cc2c[nH]cn2)NC(=O)C2(CCNCC2)NC(=O)[C@@H]2CSSC[C@H](NC(=O)[C@H](Cc3c[nH]c4ccccc34)NC1=O)C(=O)NC1(CCNCC1)C(=O)N[C@@H](Cc1c[nH]cn1)C(=O)N[C@H](Cc1ccccc1)C(=O)N[C@@H](CCCNC(=N)N)C(=O)N[C@@H](Cc1c[nH]c3ccccc13)C(=O)N2, also called c[c[Cys-ACP-His-D-Phe-Arg-Trp-Cys]-ACP-His-D-Phe-Arg-Trp]) [Chem. 47] is ___
Output: 120
